# credit: ChEMBL document CHEMBL1671636

Measured MIC of individual entries
# Tested on: Pseudomonas aeruginosa
# PROTOCOL TEXT: Antimicrobial activity against Pseudomonas aeruginosa isolate PA367 obtained from patient with cystic fibrosis by agar dilution method
# Format: functional
Give your result in µg/mL as a bare value.

Below, each entry is followed by its recorded MIC result.
{"MOLECULE": "CC(C)(O/N=C(\\C(=O)N[C@@H]1C(=O)N2C(C(=O)[O-])=C(C[n+]3ccccc3)CS[C@H]12)c1csc(N)n1)C(=O)O", "TARGET DESC": "Pseudomonas aeruginosa", "MIC [µg/mL]": 32}
{"MOLECULE": "C[C@H]1[C@H](NC(=O)/C(=N\\OC(C)(C)C(=O)O)c2csc(N)n2)C(=O)N1S(=O)(=O)O", "TARGET DESC": "Pseudomonas aeruginosa", "MIC [µg/mL]": 4}
{"MOLECULE": "CCN1CCN(C(=O)N[C@@H](C(=O)N[C@@H]2C(=O)N3[C@@H]2SC(C)(C)[C@@H]3C(=O)O)c2ccccc2)C(=O)C1=O", "TARGET DESC": "Pseudomonas aeruginosa", "MIC [µg/mL]": 64}

Now for the molecule whose MIC we want.
QUERY: # value lookup — system Pseudomonas aeruginosa, readout MIC, item CO/N=C(\C(=O)N[C@@H]1C(=O)N2C(C(=O)[O-])=C(C[N+]3(C)CCCC3)CS[C@H]12)c1csc(N)n1 [CEFEPIME]
RESULT: 16

----------
# System: Pseudomonas aeruginosa
# PROTOCOL TEXT: Antimicrobial activity against Pseudomonas aeruginosa isolate PA22 obtained from patient with cystic fibrosis by agar dilution method
# Type: functional
READOUT KIND: MIC (µg/mL)
Give your result in µg/mL as a bare value.

Below, each entry is followed by its recorded MIC result.
{"MOLECULE": "C[C@H]1[C@H](NC(=O)/C(=N\\OC(C)(C)C(=O)O)c2csc(N)n2)C(=O)N1S(=O)(=O)O [AZTREONAM]", "READOUT KIND": "MIC", "UNIT LABEL": "µg/mL", "RECORDED MEASUREMENT": 4}
{"MOLECULE": "CO/N=C(\\C(=O)N[C@@H]1C(=O)N2C(C(=O)[O-])=C(C[N+]3(C)CCCC3)CS[C@H]12)c1csc(N)n1 [CEFEPIME]", "READOUT KIND": "MIC", "UNIT LABEL": "µg/mL", "RECORDED MEASUREMENT": 16}
{"MOLECULE": "CC(C)(O/N=C(\\C(=O)N[C@@H]1C(=O)N2C(C(=O)[O-])=C(C[n+]3ccccc3)CS[C@H]12)c1csc(N)n1)C(=O)O [CEFTAZIDIME]", "READOUT KIND": "MIC", "UNIT LABEL": "µg/mL", "RECORDED MEASUREMENT": 16}

Now for the molecule whose MIC we want.
QUERY: Quick check: MIC of CCN1CCN(C(=O)N[C@@H](C(=O)N[C@@H]2C(=O)N3[C@@H]2SC(C)(C)[C@@H]3C(=O)O)c2ccccc2)C(=O)C1=O [PIPERACILLIN] ?
RESULT: 128

----------
# Test system: Pseudomonas aeruginosa
# PROTOCOL TEXT: Antimicrobial activity against Pseudomonas aeruginosa isolate PA113 obtained from patient with cystic fibrosis by agar dilution method
# Type: functional
READOUT KIND: MIC (µg/mL)
Give your result in µg/mL as a bare value.

Below, each entry is followed by its recorded MIC result.
{"MOLECULE": "CO/N=C(\\C(=O)N[C@@H]1C(=O)N2C(C(=O)[O-])=C(C[N+]3(C)CCCC3)CS[C@H]12)c1csc(N)n1 [CEFEPIME]", "TARGET DESC": "Pseudomonas aeruginosa", "RECORDED MEASUREMENT": 16}
{"MOLECULE": "CC(C)(O/N=C(\\C(=O)N[C@@H]1C(=O)N2C(C(=O)[O-])=C(C[n+]3ccccc3)CS[C@H]12)c1csc(N)n1)C(=O)O", "TARGET DESC": "Pseudomonas aeruginosa", "RECORDED MEASUREMENT": 32}
{"MOLECULE": "C[C@H]1[C@H](NC(=O)/C(=N\\OC(C)(C)C(=O)O)c2csc(N)n2)C(=O)N1S(=O)(=O)O", "TARGET DESC": "Pseudomonas aeruginosa", "RECORDED MEASUREMENT": 16}

QUERY: Quick check: MIC of CCN1CCN(C(=O)N[C@@H](C(=O)N[C@@H]2C(=O)N3[C@@H]2SC(C)(C)[C@@H]3C(=O)O)c2ccccc2)C(=O)C1=O ?
RESULT: 128
